The reported measurements were obtained from patent US11944616B2.

OBSERVED_PROPERTY: melting point

What melting point value was documented for this compound, CCC(C)C[N@+]1(C)[C@H]2Cc3ccccc3[C@]1(C)c1ccccc12 (stereo partly drawn) ? 181 to 184 °C

May I ask what melting point has been recorded for CC[N@@+]1(CC2CC2)[C@@H]2Cc3ccccc3[C@@]1(C)c1ccccc12 ? 180 to 181 °C

Look at this compound and give its reported melting point. C[C@@]12c3ccccc3C[C@@H](c3ccccc31)[N@@+]2(C)CC1(c2ccccc2)CC1 174 to 176 °C

I have this compound here, CC[N@@+]1(CCO)[C@H]2Cc3ccccc3[C@]1(C)c1ccccc12 [Compound No 26] , and I need its recorded melting point. 202 to 205 °C

Report melting point for C#CC[N@@+]1(CC2CC2)[C@@H]2Cc3ccccc3[C@@]1(C)c1ccccc12 please. 168 to 169 °C

Can you look up the measured melting point of Cc1ccc(C[N@+]2(C)[C@H]3Cc4ccccc4[C@]2(C)c2ccccc23)cc1 for me? 134 to 136 °C

What value of melting point has been recorded for this entry: CC[N@+]1(C)[C@H]2Cc3ccccc3[C@]1(C)c1ccccc12 230 to 232 °C

Consider the compound shown here: C[C@@]12c3ccccc3C[C@@H](c3ccccc31)[N@@+]2(C)CCO What is its recorded melting point? 216 to 219 °C

For the compound C[C@@]12c3ccccc3C[C@@H](c3ccccc31)[N@@+]2(C)Cc1ccccc1Cl , what melting point is on record? 129 to 131 °C
